system: HEK-293T; experiment: Multiplex assay against HEK293T; type: toxicity, cell-based; conditions: human, 48 h, 10 µM, compound concentration 10 uM, replicate 2
metric: Population Mitotic Cells (%)

>  <compound>
CN1CCN(CCOc2cc(OC3CCOCC3)c3c(Nc4c(Cl)ccc5c4OCO5)ncnc3c2)CC1

>  <metric>
Population Mitotic Cells (%)

>  <readout number>
15

$$$$
>  <compound>
Cc1nc(-c2ccc(-c3ccc(C(=O)N4CCc5cc6c(cc54)C4(CCN(C)CC4)CO6)cc3)c(C)c2)no1

>  <metric>
Population Mitotic Cells (%)

>  <readout number>
0

$$$$
>  <compound>
O=C1NCN(c2ccccc2)C12CCN(CCCOc1ccc(F)cc1)CC2 [SPIRAMIDE]

>  <metric>
Population Mitotic Cells (%)

>  <readout number>
78

$$$$
>  <compound>
NC(=O)Nc1cc(-c2cccc(F)c2)sc1C(=O)N[C@H]1CCCNC1

>  <metric>
Population Mitotic Cells (%)

>  <readout number>
24

$$$$
>  <compound>
Cl.N#Cc1ccc2[nH]cc(CCCCN3CCN(c4ccc5oc(C(N)=O)cc5c4)CC3)c2c1 [VILAZODONE HYDROCHLORIDE]

>  <metric>
Population Mitotic Cells (%)

>  <readout number>
4

$$$$
>  <compound>
CN1CCC[C@@H]1CCO[C@](C)(c1ccccc1)c1ccc(Cl)cc1.O=C(O)/C=C/C(=O)O [CLEMASTINE FUMARATE]

>  <metric>
Population Mitotic Cells (%)

>  <readout number>
2

$$$$
>  <compound>
COc1cccc([C@@H](C)NCCCc2ccccc2Cl)c1.Cl [TECALCET HYDROCHLORIDE]

>  <metric>
Population Mitotic Cells (%)

>  <readout number>
41

$$$$
>  <compound>
C[C@@H](NCCCc1cccc(C(F)(F)F)c1)c1cccc2ccccc12.Cl [CINACALCET HYDROCHLORIDE]

>  <metric>
Population Mitotic Cells (%)

>  <readout number>
10

$$$$
